Ref: patent US20200115416A1

Biological target: mouse melanocortin-1 receptor (mouse, UniProt Q01727 1-315)
Sequence (Q01727 whole entry): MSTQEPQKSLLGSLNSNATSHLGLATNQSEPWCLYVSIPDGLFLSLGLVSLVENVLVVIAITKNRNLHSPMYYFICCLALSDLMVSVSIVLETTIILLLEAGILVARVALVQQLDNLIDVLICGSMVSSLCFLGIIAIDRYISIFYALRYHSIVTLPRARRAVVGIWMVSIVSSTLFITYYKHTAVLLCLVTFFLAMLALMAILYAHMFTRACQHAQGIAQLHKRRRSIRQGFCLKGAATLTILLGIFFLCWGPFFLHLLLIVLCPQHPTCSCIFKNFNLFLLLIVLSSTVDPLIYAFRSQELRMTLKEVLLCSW
Assay: cell-based or functional assay
Square brackets hold non-standard residues; d marks the D form.
valueType: agonist EC50 (cAMP AlphaScreen) (µM)

binder="PRFFXAFP (head-to-tail cyclic; DPhe at 3 and 4; Dap at 5; DPro at 8) [c[Pro-Arg-DPhe-DPhe-Dap-Ala-Phe-DPro]]" recordedresult=0.7
binder="cyclo(P[dR]F[dF]NAF[dP]) [c[Pro-DArg-Phe-DPhe-Asn-Ala-Phe-DPro]]" recordedresult=1.2
binder="PRFFXAFP (head-to-tail cyclic; DArg at 2; DPhe at 3; Dap at 5; DPro at 8) [c[Pro-DArg-DPhe-Phe-Dap-Ala-Phe-DPro]]" recordedresult=0.8
binder="PRFFXAFP (head-to-tail cyclic; DArg at 2; DPhe at 4; Dap at 5; DPro at 8) [c[Pro-DArg-Phe-DPhe-Dap-Ala-Phe-DPro]]" recordedresult=0.45
binder="cyclo(P[dR][dF]FNAF[dP]) [c[Pro-DArg-DPhe-Phe-Asn-Ala-Phe-DPro]]" recordedresult=0.5
binder="cyclo(PR[dF][dF]NAF[dP]) [c[Pro-Arg-DPhe-DPhe-Asn-Ala-Phe-DPro]]" recordedresult=0.8

P: cyclo(PR[dF]FNAF[dP]) [c[Pro-Arg-DPhe-Phe-Asn-Ala-Phe-DPro]]
Q: cyclo(P[dR][dF][dF]NAF[dP]) [c[Pro-DArg-DPhe-DPhe-Asn-Ala-Phe-DPro]]
Asked: Smaller agonist EC50 (cAMP AlphaScreen) value, P vs Q ? Bench note: the answer is the label of the chosen record.
Given back: P
